Molecular target: S100A6
Assay: FP; competitive
RESULT_TYPE: Kd (µM)

>  <BINDER>
VLQTWLQDLLRRGLVRAAQ [TRPM4 (129-147) peptide]

>  <Kd, µM>
8.4

$$$$

[P] SEGLMNVLKKIYEDG [SIP (188-202) peptide]
[Q] RKLQRELEDATETADAMNREVSSLKNKLRRGDLPFVVPRRMARK [NMIIA (1894-1937) peptide]
Task: Would you let me know which has the greater Kd value, P or Q ? Reply with the label of the item you choose.
Result: P
